Tested on: E. coli pLC1021 (luc-trpAt trans-translation reporter)
Construct: pLC1021 luc-trpAt reporter strain
Set-up: species or system Escherichia coli pLC1021; luc-trpAt non-stop luciferase reporter; luminescence rises when trans-translation is inhibited; normalized to KKL-35 and DMSO
Settings: reporter signal, KKL-35 = 100%; rise means trans-translation inhibition; 2 h, 20 µM
Among all 1,600 compounds or so, about 20 (1%) showed an effect of 50% or more. The list comes from a sample in which strong results are over-represented; it also holds close analogues and randomly drawn compounds.
# % activation annotations
Quick note: give the figure in %, leave out the unit.

compound="CC1CN(c2ccc([N+](=O)[O-])cc2)CCN1C(=O)c1cccc(Br)c1 (stereo not drawn)" recorded_value=0
compound=O=C(Nc1ccc2c(c1)CN(C(=O)/C=C/c1cccs1)CC2)c1ccncc1 recorded_value=0

Entry O=C(Cc1ccc(F)cc1)Nc1nc(-c2ccccn2)cs1 , % activation reported as 13

Entry COc1ccc(Nc2nc(NC3CCNC3)nc3cc[nH]c(=O)c23)cc1CC(=O)c1ccccc1 (stereo not drawn) , % activation reported as 335

Entry FC(F)(F)c1nnc2ccc(Sc3nnc(-c4ccco4)o3)nn12 , % activation reported as 1

Entry Cc1ccc2nc(C(F)(F)F)c(C(=O)NCc3cccc(OC(C)C)c3)n2c1 , % activation reported as 2

Entry Fc1ccc(Nc2nc(-c3ccccn3)cs2)cc1 , % activation reported as 18

* * *

System: E. coli pLC1021 (luc-trpAt trans-translation reporter)
Construct: pLC1021 luc-trpAt reporter strain
Set-up: species or system Escherichia coli pLC1021; luc-trpAt non-stop luciferase reporter; luminescence rises when trans-translation is inhibited; normalized to KKL-35 and DMSO
Conditions: reporter signal, KKL-35 = 100%; rise means trans-translation inhibition; 2 h, 20 µM
Screen size: about 1,600 compounds; about 20 (1%) showed an effect of 50% or more. For the sample, strong results were picked, then their nearest neighbours and some compounds at random.
Assign yes (1) to entries whose % activation meets or exceeds 20%; assign no (0) to the rest.

compound=COc1ccccc1N1C(=O)c2cccc3cc([N+](=O)[O-])cc(c23)C1=O category_label="no (0)"
compound=Cn1cc(CCNC(=O)Nc2ccc(N3CCCCC3)nc2)cn1 category_label="no (0)"
compound=Cc1oc2ccccc2c1CN(CCCn1ccnc1)Cc1cccc(F)c1 category_label="no (0)"
compound="CSCCC(=O)N1CCCC(C(=O)Nc2cccc(-c3cccc(C)c3)c2)C1 (stereo not shown)" category_label="no (0)"
compound=Cc1c(C(=O)NC(=S)Nc2ccc(Oc3ccc(Cl)cc3)cc2)cccc1[N+](=O)[O-] category_label="no (0)"
compound=Cc1cc(Nc2ccccc2)n(-c2nc3ccccc3[nH]2)n1 category_label="yes (1)"
compound=Oc1ccc(Br)c2cccnc12 category_label="yes (1)"
compound=O=C(NCc1ccco1)N1CCN(Cc2ccc(Cl)s2)CC1 category_label="no (0)"
compound=O=[N+]([O-])c1cc(O)c2ncccc2c1 category_label="yes (1)"

Continue with the next compound.
Request: Does the reported % activation for CCCc1cc2c(=O)c(-c3ccc4c(c3)OCCCO4)coc2cc1OCC(=O)OCC fall at or above the 20% mark?
Response: no (0)

* * *

System: E. coli pLC1021 (luc-trpAt trans-translation reporter)
Construct: pLC1021 luc-trpAt reporter strain
Design: species or system Escherichia coli pLC1021; luc-trpAt non-stop luciferase reporter; luminescence rises when trans-translation is inhibited; normalized to KKL-35 and DMSO
Details: reporter signal, KKL-35 = 100%; rise means trans-translation inhibition; 2 h, 20 µM
Procedure: The luciferase screen was performed as previously described ([16]). […] 48 µL of cells was transferred to white 96-well plates, and 2 µL DMSO or 20 µM compound, or 20 µM KKL-35 was added. […] Luminescence was measured at 560 nm using a SpectraMax i3 microplate reader and readings for each plate were normalized to the average of three KKL-35-treated wells (positive control) and three DMSO-treated wells (negative control) within the plate to correct for plate-to-plate and day-to-day variations. […]
Screen size: about 1,600 compounds; about 20 (1%) showed an effect of 50% or more. For the sample, strong results were picked, then their nearest neighbours and some compounds at random.
METRIC: % activation (%)
Quick note: give the figure in %, leave out the unit.

compound="CN(C)c1ccc(N=Nc2nc3ccccc3n2C)cc1 [KKL-1056]" subject_of_test="E. coli pLC1021 (luc-trpAt trans-translation reporter)" metric="% activation" recorded_value=0
compound="Cc1nn(-c2ccccc2)c2c1C(c1ccc(O)c(O)c1)N1C(=N2)C(Nc2ccccc2)=Nc2ccccc21 (centres unmarked) [KKL-0996]" subject_of_test="E. coli pLC1021 (luc-trpAt trans-translation reporter)" metric="% activation" recorded_value=0
compound="COc1ccc(OC)c(NC(=O)Nc2ccc(Cl)c(C(F)(F)F)c2)c1 [KKL-1544]" subject_of_test="E. coli pLC1021 (luc-trpAt trans-translation reporter)" metric="% activation" recorded_value=0
compound="O=C(C[n+]1nc(CNc2ccc(Cl)cc2)n2c1CCCCC2)c1ccc(Br)cc1 [KKL-1021]" subject_of_test="E. coli pLC1021 (luc-trpAt trans-translation reporter)" metric="% activation" recorded_value=9
compound="COc1ccccc1C1(O)CCN(Cc2cnn(-c3ccc(C)cc3)c2)CC1 [KKL-0553]" subject_of_test="E. coli pLC1021 (luc-trpAt trans-translation reporter)" metric="% activation" recorded_value=7

Entry COc1ccccc1C(=O)NNC(=S)NC(=O)c1ccc(-c2ccccc2)cc1 [KKL-0561] , % activation reported as 11

Entry CCOC(=O)c1ccc(NC(=O)c2ccc(C)s2)cc1 [KKL-0584] , % activation reported as 0

Entry CC(C)(C)c1ccc(C(=O)NC(=S)N2CCCC2)cc1 [KKL-1436] , % activation reported as 12

Entry CCc1ccc(CCC(=O)Nc2ccc(C)cc2)o1 [KKL-1248] , % activation reported as 0

Entry Clc1nnc(N2CCCC2)c2ccccc12 [KKL-1738] , % activation reported as 0

Entry COC(=O)C(CCSC)NC(=O)c1cc(COc2ccc(F)cc2Cl)on1 (centres unmarked) [KKL-0497] , % activation reported as 9

Entry CCOC(=O)/C(C#N)=C/c1ccc(-c2ccc(F)cc2)o1 [KKL-0788] , % activation reported as 0

Entry O=C(Nc1ccc2c(c1)OCCO2)c1cccc2nc3ccccc3nc12 [KKL-0843] , % activation reported as 0

Entry Cc1ccc(C(=O)NC(=S)Nc2ccc(S(=O)(=O)NC(C)C)cc2)cc1Br [KKL-0593] , % activation reported as 0

Entry COC(=O)COc1ccc2c(=O)c(-c3ccccc3Cl)c(C)oc2c1 [KKL-0748] , % activation reported as 0

* * *

Tested on: E. coli pLC1021 (luc-trpAt trans-translation reporter)
Construct: pLC1021 luc-trpAt reporter strain
Parameters: species or system Escherichia coli pLC1021; luc-trpAt non-stop luciferase reporter; luminescence rises when trans-translation is inhibited; normalized to KKL-35 and DMSO
Conditions: reporter signal, KKL-35 = 100%; rise means trans-translation inhibition; 2 h, 20 µM
Description: The luciferase screen was performed as previously described ([16]). […] 48 µL of cells was transferred to white 96-well plates, and 2 µL DMSO or 20 µM compound, or 20 µM KKL-35 was added. […] Luminescence was measured at 560 nm using a SpectraMax i3 microplate reader and readings for each plate were normalized to the average of three KKL-35-treated wells (positive control) and three DMSO-treated wells (negative control) within the plate to correct for plate-to-plate and day-to-day variations. […]
About 20 (1%) of roughly 1,600 compounds showed an effect of 50% or more. The sample as a whole holds a higher share of strong results than the screen did.
METRIC: % activation
A complete answer gives the number and then names the unit.

record_smiles=O=C(Nc1ccc(Cl)cc1)c1cc2c(cc1O)[nH]c1ccccc12 subject_of_test="E. coli pLC1021 (luc-trpAt trans-translation reporter)" recorded_value=102%
record_smiles=CSc1nc2nc3c(c(O)n2n1)CCCC3 subject_of_test="E. coli pLC1021 (luc-trpAt trans-translation reporter)" recorded_value=0%
record_smiles=COc1cc(CN(CCCn2ccnc2)Cc2ccc(C)s2)cc2c1OCO2 subject_of_test="E. coli pLC1021 (luc-trpAt trans-translation reporter)" recorded_value=9%
record_smiles=Nc1cccnc1Nc1ccc(C(F)(F)F)cc1 subject_of_test="E. coli pLC1021 (luc-trpAt trans-translation reporter)" recorded_value=4%

Could you now consider this next molecule?
Entry O=C(Nc1ccc(-c2nc3ccccc3c(=O)o2)cc1)c1ccccc1I , % activation reported as 2%

* * *

System: E. coli pLC1021 (luc-trpAt trans-translation reporter)
Construct: pLC1021 luc-trpAt reporter strain
Design: species or system Escherichia coli pLC1021; luc-trpAt non-stop luciferase reporter; luminescence rises when trans-translation is inhibited; normalized to KKL-35 and DMSO
Settings: reporter signal, KKL-35 = 100%; rise means trans-translation inhibition; 2 h, 20 µM
About 20 (1%) of roughly 1,600 compounds showed an effect of 50% or more. The list comes from a sample in which strong results are over-represented; it also holds close analogues and randomly drawn compounds.
# % activation annotations
A complete answer gives the number and then names the unit.

compound="O=C(Nc1nccs1)c1ccc(CSc2ccccc2)o1 [KKL-0586]" recorded_value=0%
compound="CN(CC1Cc2ccccc2CN1C)C(=O)c1cc(COc2cncc(Cl)c2)on1 (stereo not drawn) [KKL-1186]" recorded_value=0%
compound="Cc1ccc2[nH]c(C3CCCNC3)c(-c3ccncc3)c2c1 (stereo not drawn) [KKL-1820]" recorded_value=14%
compound="COc1ccc(C(=O)NC(=S)Nc2ccc(N3CCCCC3)cc2)cc1OC [KKL-1472]" recorded_value=0%
compound="COc1ccc(O)c(CN2CCCC(N3CCN(c4cccc(C(F)(F)F)c4)CC3)C2)c1 (stereo not drawn) [KKL-0660]" recorded_value=1%
compound="CCn1ccnc1CN(C)Cc1cn(-c2ccc(C)cc2)nc1-c1ccc(F)cc1 [KKL-0657]" recorded_value=0%

Could you now consider this next compound?
Simply: CCOC(=O)c1c(NC(=O)COc2ccc(C(C)C)cc2)sc2c1CCC2 [KKL-1530] , E. coli pLC1021 (luc-trpAt trans-translation reporter), % activation = 0%
